# System: MIA PaCa2 cells
# method-description: Cell expansion inhibition assay (CCK-8, 72 h), Table 4
# Type: cell-based, human
# experimental-conditions: without expression of FOLR1, read-out: MIAPACA-2 IC50
pIC50: −log10 of the molar value.
pIC50 overview
endpoint-name: pIC50

[[record]]
compound = "CC[C@@]1(O)C(=O)OCc2c1cc1n(c2=O)Cc2c-1nc1cc(F)c(C)c3c1c2[C@@H](NC(=O)CO)CC3 [Dxd]"
system_under_test = "MIA PaCa2 cells"
result = 6.96

[[record]]
compound = "CC[C@@]1(O)C(=O)OCc2c1cc1n(c2=O)Cc2c-1nc1cc(F)c(C)c3c1c2[C@@H](N)CC3 [Dx]"
system_under_test = "MIA PaCa2 cells"
result = 8.26

[[record]]
compound = "CCc1c2c(nc3ccc(O)cc13)-c1cc3c(c(=O)n1C2)COC(=O)[C@]3(O)CC [SN38]"
system_under_test = "MIA PaCa2 cells"
result = 8.15

